# Tested on: Escherichia coli TOP10
# procedure-text: shrunken log2 fold change of peptide-encoding DNA abundance (4.5 h post-induction vs induction); higher = less antimicrobial activity (less host growth inhibition)
# setup-conditions: time post-induction: 4.5 h; library: site-saturation at positions 5, 18, 19, 20
The entries below are paired with their reported shrunken log2 fold change.
// response body must contain only the number

# input Fill in: shrunken log2 fold change of RRIRMRPPRLPRPRPRPFIPPRP is ___
# output -0.26

----------
# Tested on: Escherichia coli TOP10
# procedure-text: shrunken log2 fold change of peptide-encoding DNA abundance (4.5 h post-induction vs induction); higher = less antimicrobial activity (less host growth inhibition)
# setup-conditions: time post-induction: 4.5 h; library: site-saturation at positions 5, 18, 19, 20
Label scheme for shrunken log2 fold change: lower than -0.04 is 0.0, -0.04 and above is 1.0.

| sequence | category |
| --- | --- |
| RRIRNRPPRLPRPRPRPHRYPRP | 0.0 |

# input Does the reported shrunken log2 fold change for RRIRARPPRLPRPRPRPKIYPRP fall at or above the -0.04 mark?
# output 0.0

# input Please answer likewise for RRIRTRPPRLPRPRPRPSKRPRP
# output 0.0

# input Subsequent entry: RRIRPRPPRLPRPRPRPLFCPRP
# output 0.0

# input Continue with RRIRIRPPRLPRPRPRPIAMPRP
# output 0.0

# input Request: RRIRARPPRLPRPRPRPKLDPRP
# output 1.0

# input Lookup RRIRVRPPRLPRPRPRPQALPRP
# output 1.0

# input What do you have for RRIRKRPPRLPRPRPRPQDWPRP ?
# output 1.0

----------
# Test system: Escherichia coli TOP10
# procedure-text: shrunken log2 fold change of peptide-encoding DNA abundance (4.5 h post-induction vs induction); higher = less antimicrobial activity (less host growth inhibition)
# setup-conditions: time post-induction: 4.5 h; library: site-saturation at positions 5, 18, 19, 20
Measured shrunken log2 fold change, listed per entry.
Write the number on its own, no unit after it.

// solved cases for shrunken log2 fold change follow
| sequence | result-value |
| --- | --- |
| RRIRERPPRLPRPRPRPEHRPRP | -0.0185 |
| RRIRIRPPRLPRPRPRPYLPPRP | -0.206 |
| RRIRSRPPRLPRPRPRPNMEPRP | -0.154 |

# input What value of measured shrunken log2 fold change is listed for RRIRLRPPRLPRPRPRPTAPPRP ?
# output 0.645

# input Repeat for the following sequence: RRIRHRPPRLPRPRPRPSHGPRP
# output -0.137

# input Repeat for the following sequence: RRIRARPPRLPRPRPRPLLWPRP
# output 1.94

# input Also need RRIRFRPPRLPRPRPRPIIRPRP , thanks.
# output -0.014

# input Next sequence: RRIRTRPPRLPRPRPRPQKIPRP
# output -0.123

# input And the next one, RRIRSRPPRLPRPRPRPKSSPRP ?
# output -0.176

# input Here is the next sequence: RRIRDRPPRLPRPRPRPWWAPRP
# output 0.61

# input Again, but for RRIRLRPPRLPRPRPRPIPAPRP
# output -0.112

# input Quick one: RRIRMRPPRLPRPRPRPHGVPRP
# output 0.023

# input Lookup RRIRDRPPRLPRPRPRPRFSPRP
# output -0.037

----------
# Tested on: Escherichia coli TOP10
# procedure-text: shrunken log2 fold change of peptide-encoding DNA abundance (4.5 h post-induction vs induction); higher = less antimicrobial activity (less host growth inhibition)
# setup-conditions: time post-induction: 4.5 h; library: site-saturation at positions 5, 18, 19, 20
Label rule, in plain words: shrunken log2 fold change of 0.0004 and up is Met, under 0.0004 is Not met.

| sequence | category |
| --- | --- |
| RRIRLRPPRLPRPRPRPHHQPRP | Not met |

# input Reported shrunken log2 fold change at or above 0.0004? RRIRTRPPRLPRPRPRPFDTPRP
# output Not met

# input What about RRIRSRPPRLPRPRPRPIPKPRP ?
# output Met

# input Now consider RRIRVRPPRLPRPRPRPPQLPRP and answer again.
# output Met

# input How about this sequence: RRIRERPPRLPRPRPRPGSKPRP
# output Not met

# input And for RRIRHRPPRLPRPRPRPMENPRP ?
# output Met

# input Consider next the sequence RRIRDRPPRLPRPRPRPGMLPRP in the same way.
# output Not met

# input Now consider RRIRFRPPRLPRPRPRPKFGPRP and answer again.
# output Met

# input Another sequence to look at: RRIRRRPPRLPRPRPRPYWCPRP
# output Not met

# input Queued: RRIRQRPPRLPRPRPRPCHPPRP
# output Not met

# input Continue with RRIRLRPPRLPRPRPRPKIMPRP
# output Not met

----------
# System: Escherichia coli TOP10
# procedure-text: shrunken log2 fold change of peptide-encoding DNA abundance (4.5 h post-induction vs induction); higher = less antimicrobial activity (less host growth inhibition)
# setup-conditions: time post-induction: 4.5 h; library: site-saturation at positions 5, 18, 19, 20
measurement-name: shrunken log2 fold change
Just the number.

// below: answered sequences
| sequence | shrunken log2 fold change |
| --- | --- |
| RRIRPRPPRLPRPRPRPWETPRP | 0.124 |
| RRIRCRPPRLPRPRPRPREPPRP | 0.211 |
| RRIRHRPPRLPRPRPRPAVPPRP | 0.0133 |
| RRIRSRPPRLPRPRPRPAFTPRP | -0.0573 |
| RRIRKRPPRLPRPRPRPFHQPRP | -0.0483 |
| RRIRARPPRLPRPRPRPQGEPRP | 0.294 |
| RRIRQRPPRLPRPRPRPQEQPRP | -0.000777 |
| RRIRSRPPRLPRPRPRPAHCPRP | 0.0412 |
| RRIRWRPPRLPRPRPRPSVFPRP | 0.222 |
| RRIRWRPPRLPRPRPRPTIWPRP | 0.0311 |

# input Record RRIRERPPRLPRPRPRPMRLPRP : what is its shrunken log2 fold change with Escherichia coli TOP10?
# output 0.472

# input Quick one: RRIRHRPPRLPRPRPRPGMVPRP
# output 0.12

# input Moving on to RRIRVRPPRLPRPRPRPVNSPRP
# output -0.184

# input Would you kindly repeat that for RRIRYRPPRLPRPRPRPHFQPRP ?
# output -0.399

# input Also RRIRPRPPRLPRPRPRPVPPPRP , if possible.
# output 0.26

----------
# Tested on: Escherichia coli TOP10
# procedure-text: shrunken log2 fold change of peptide-encoding DNA abundance (4.5 h post-induction vs induction); higher = less antimicrobial activity (less host growth inhibition)
# setup-conditions: time post-induction: 4.5 h; library: site-saturation at positions 5, 18, 19, 20
measurement-name: shrunken log2 fold change

| sequence | test-system | shrunken log2 fold change |
| --- | --- | --- |
| RRIRRRPPRLPRPRPRPAQIPRP | Escherichia coli TOP10 | 0.494 |
| RRIRARPPRLPRPRPRPDPFPRP | Escherichia coli TOP10 | 0.0855 |
| RRIRCRPPRLPRPRPRPHWQPRP | Escherichia coli TOP10 | -0.365 |
| RRIRTRPPRLPRPRPRPPRPPRP | Escherichia coli TOP10 | 0.713 |
| RRIRGRPPRLPRPRPRPRDPPRP | Escherichia coli TOP10 | 1.32 |

# input Bench note: what shrunken log2 fold change did RRIRYRPPRLPRPRPRPHWNPRP show?
# output -0.799

# input Entry RRIRERPPRLPRPRPRPAPRPRP please
# output 0.734

# input What do you get for RRIRVRPPRLPRPRPRPYDAPRP ?
# output -0.294

----------
Parameter: shrunken log2 fold change. Scope: all listed entries.
# System: Escherichia coli TOP10;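 further: peptides expressed intracellularly from a pBAD plasmid library in pooled LB shake-flask culture, induced with 0.3% L-arabinose, DNA abundance read by NGS, three biological replicates, DESeq2 with apeglm shrinkage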
# procedure-text: shrunken log2 fold change of peptide-encoding DNA abundance (4.5 h post-induction vs induction); higher = less antimicrobial activity (less host growth inhibition)
# setup-conditions: time post-induction: 4.5 h; library: site-saturation at positions 5, 18, 19, 20
Form rule: numeric answer, no unit written next to it.

| sequence | shrunken log2 fold change |
| --- | --- |
| RRIRSRPPRLPRPRPRPILNPRP | -0.183 |
| RRIRARPPRLPRPRPRPVAWPRP | 0.474 |
| RRIRIRPPRLPRPRPRPFSGPRP | -0.241 |
| RRIRPRPPRLPRPRPRPGIVPRP | -0.0451 |
| RRIRVRPPRLPRPRPRPQCAPRP | 0.135 |

# input Which shrunken log2 fold change value is on record for RRIRPRPPRLPRPRPRPGIQPRP ?
# output -0.214

# input How about this sequence: RRIRFRPPRLPRPRPRPVWWPRP
# output 0.148

# input Item: RRIRHRPPRLPRPRPRPNYVPRP
# output -0.0206
